- Target: ER (Homo sapiens, UniProt P03372)
- Construct: host or cells: T47D and MCF7 human breast cancer cells
- Assay procedure: ER degradation activity, in-cell western blot analysis in T47D cells
- Type: cell-based
- Experimental parameters: 16 hours, Table A does not say which cell line (T47D or MCF7), read-out: Potency (DC50)
Quantity measured: DC50

// known answers, use as guide
- Molecule: "O=C1CCC(N2C(=O)c3cc4c(cc3C2=O)CN(CC(=O)N2CC3(CCN(c5ccc([C@@H]6c7ccc(O)cc7CC[C@@H]6c6ccccc6)cc5)CC3)C2)C4)C(=O)N1 (stereo partly shown) [E 148]"
  Target: "ER (Homo sapiens, UniProt P03372)"
  DC50: "< 10 nM"
- Molecule: "CN(CC1CN(c2ccc([C@@H]3c4ccc(O)cc4CC[C@@H]3c3ccccc3)cc2)C1)C1CCC(N2Cc3cc4c(cc3C2)C(=O)N(C2CCC(=O)NC2=O)C4=O)CC1 (stereo partly shown)"
  Target: "ER (Homo sapiens, UniProt P03372)"
  DC50: "> 100 nM"

INPUT: # get_value(readout= DC50, system= ER (Homo sapiens, UniProt P03372)) for O=C1CCC(N2C(=O)c3cc4c(cc3C2=O)CN(C2CCN(C(=O)C3CCN(c5ccc([C@@H]6c7ccc(O)cc7CC[C@@H]6c6ccccc6)cc5)CC3)CC2)C4)C(=O)N1 (mixture of isomers) [E 13]
OUTPUT: < 10 nM

INPUT: Value wanted: DC50 (ER (Homo sapiens, UniProt P03372)) of entry C[C@@H]1Cc2c([nH]c3ccccc23)[C@@H](c2c(F)cc(N3CC(C(=O)N4CCC(N5Cc6cc7c(cc6C5)C(=O)N(C5CCC(=O)NC5=O)C7=O)CC4)C3)cc2F)N1CC(F)F (stereo partly shown) [E 122]
OUTPUT: < 10 nM

INPUT: Hi! What's the reported DC50 for C[C@H]1CC2(CCN(C(=O)CN3Cc4cc5c(cc4C3)C(=O)N(C3CCC(=O)NC3=O)C5=O)CC2)CN1c1ccc([C@@H]2c3ccc(O)cc3CC[C@@H]2c2ccccc2)cc1 (mixture of isomers) on ER (Homo sapiens, UniProt P03372)?
OUTPUT: 10 to 100 nM

INPUT: What measured DC50 is associated with C[C@@H]1Cc2c([nH]c3ccccc23)[C@@H](c2cnc(N3CCC4(CC3)CN(C(=O)CN3Cc5cc6c(cc5C3)C(=O)N(C3CCC(=O)NC3=O)C6=O)C4)nc2)N1CC(F)(F)F (stereo partly shown) on ER (Homo sapiens, UniProt P03372)?
OUTPUT: < 10 nM

INPUT: Can you look up DC50 on ER (Homo sapiens, UniProt P03372) for C[C@@H]1Cc2c([nH]c3ccccc23)[C@@H](c2c(F)cc(N3CCC4(CCN(CC(=O)N5Cc6cc7c(cc6C5)C(=O)N(C5CCC(=O)NC5=O)C7)C4)C3)cc2F)N1CC(F)F (stereo partly shown) ?
OUTPUT: 10 to 100 nM

INPUT: Given the entry O=C1CCC(N2C(=O)c3cc4c(cc3C2=O)CN(CC(=O)N2CC3(CCN(c5ccc([C@@H]6c7ccc(O)cc7CC[C@@H]6c6ccccc6)cc5F)CC3)C2)C4)C(=O)N1 (mixture of isomers) , what DC50 was observed with ER (Homo sapiens, UniProt P03372)?
OUTPUT: > 100 nM

INPUT: Which measured DC50 belongs to C[C@@H]1Cc2cc(O)ccc2[C@@H](c2c(F)cc(N3CCC4(CC3)CN(C(=O)CN3Cc5cc6c(cc5C3)C(=O)N(C3CCC(=O)NC3=O)C6=O)C4)cc2F)N1CC(F)F (stereo partly shown) , tested on ER (Homo sapiens, UniProt P03372)?
OUTPUT: < 10 nM

INPUT: API: value(readout= DC50, system= ER (Homo sapiens, UniProt P03372), query= O=C1CCC(N2C(=O)c3cc4c(cc3C2=O)CN(CC(=O)N2CCC3(CC2)CCN(c2ccc(C(=C(CCCl)c5ccc(F)cc5)c5ccc(O)cc5)cc2)CC3)CC4)C(=O)N1 (stereo not shown) )
OUTPUT: 10 to 100 nM

###

Entries annotated with measured DC50
- Target: ER (Homo sapiens, UniProt P03372)
- Construct: host or cells: T47D and MCF7 human breast cancer cells
- Assay procedure: ER degradation activity, in-cell western blot analysis in T47D cells
- Type: cell-based
- Experimental parameters: 16 hours, Table A does not say which cell line (T47D or MCF7), read-out: Potency (DC50)

- Compound: "O=C1CCC(N2Cc3cc4c(cc3C2=O)CN(C(=O)[C@H]2CC[C@H](N3CC(Oc5ccc([C@@H]6c7ccc(O)cc7CC[C@@H]6c6ccccc6)cc5)C3)CC2)C4)C(=O)N1 (single isomer, unassigned)"
  DC50: "< 10 nM"

INPUT: # get_value(readout='DC50', item= C[C@@H]1Cc2c([nH]c3ccccc23)[C@@H](c2c(F)cc(N3CC[C@@H](CN4CCC(C(=O)N5Cc6cc7c(cc6C5)C(=O)N(C5CCC(=O)NC5=O)C7=O)CC4)C3)cc2F)N1CC(F)F (some centres unmarked) )
OUTPUT: < 10 nM

INPUT: Returns the measured DC50 for the input compound. Input: O=C1CCC(N2C(=O)c3cc4c(cc3C2=O)CN(C(=O)CN2CCC[C@H](Oc3ccc([C@@H]5c6ccc(O)cc6CC[C@@H]5c5ccc(F)cc5)cc3)C2)C4)C(=O)N1 (mixture of isomers)
OUTPUT: > 100 nM

INPUT: Fill in: DC50 of C[C@@H]1Cc2cc(O)ccc2[C@@H](c2c(F)cc(N3CCC4(CCN(CC(=O)N5Cc6cc7c(cc6C5)C(=O)N(C5CCC(=O)NC5=O)C7=O)C4)CC3)cc2F)N1CC(C)(F)F (some centres unmarked) is ___
OUTPUT: > 100 nM

INPUT: Entry under review: C[C@@H]1Cc2c([nH]c3ccccc23)[C@@H](c2c(F)cc(C3CCC(CN4CC(CN5Cc6cc7c(cc6C5)C(=O)N(C5CCC(=O)NC5=O)C7=O)C4)CC3)cc2F)N1CC(F)F (some centres unmarked) . Reported DC50?
OUTPUT: > 100 nM

INPUT: Look up DC50 for this compound: O=C1CCC(N2C(=O)c3cc4c(cc3C2=O)CCN(CC(=O)N2CC3(CCN(c5ccc([C@@H]6c7ccc(O)cc7CC[C@@H]6c6ccccc6)cc5)CC3)C2)CC4)C(=O)N1 (some centres unmarked)
OUTPUT: > 100 nM

INPUT: What DC50 value was documented for this compound, C[C@@H]1Cc2c([nH]c3ccccc23)[C@@H](c2c(F)cc(-c3ccc(C(=O)N4CCC(N5Cc6cc7c(cc6C5)C(=O)N(C5CCC(=O)NC5=O)C7=O)CC4)cn3)cc2F)N1CC(F)F (some centres unmarked) ?
OUTPUT: < 10 nM

INPUT: Request the reported DC50 associated with O=C1CCC(N2C(=O)c3cc4c(cc3C2=O)CN(CC(=O)N2CCC3(CC2)CCN(c2ccc([C@@H]5c6ccc(O)cc6CC[C@@H]5c5ccc(F)cc5)cc2)C3)C4)C(=O)N1 (some centres unmarked)
OUTPUT: 10 to 100 nM

INPUT: Bench note: what DC50 did O=C1CCC(N2C(=O)c3cc4c(cc3C2=O)CN(C2CCN(CC3CN(c5ccc([C@@H]6c7ccc(O)cc7CC[C@@H]6c6ccccc6)cc5)C3)CC2)C4)C(=O)N1 (some centres unmarked) show?
OUTPUT: < 10 nM

INPUT: Can you look up the measured DC50 of O=C1CCC(N2C(=O)c3cc4c(cc3C2=O)CN(CC2(F)CCN(CC3CN(c5ccc([C@@H]6c7ccc(O)cc7CC[C@@H]6c6ccccc6)cc5)C3)CC2)C4)C(=O)N1 (some centres unmarked) for me?
OUTPUT: > 100 nM

INPUT: What measured DC50 goes with O=C1CCC(N2C(=O)c3cc4c(cc3C2=O)CN(CC2CCN(CC3CCN(c5ccc([C@@H]6c7ccc(O)cc7CC[C@@H]6c6ccccc6)cc5)CC3)CC2)C4)C(=O)N1 (some centres unmarked) ?
OUTPUT: > 100 nM

###

- Target: ER (Homo sapiens)
- Construct: host or cells: T47D and MCF7 human breast cancer cells
- Sequence (P03372 1-595): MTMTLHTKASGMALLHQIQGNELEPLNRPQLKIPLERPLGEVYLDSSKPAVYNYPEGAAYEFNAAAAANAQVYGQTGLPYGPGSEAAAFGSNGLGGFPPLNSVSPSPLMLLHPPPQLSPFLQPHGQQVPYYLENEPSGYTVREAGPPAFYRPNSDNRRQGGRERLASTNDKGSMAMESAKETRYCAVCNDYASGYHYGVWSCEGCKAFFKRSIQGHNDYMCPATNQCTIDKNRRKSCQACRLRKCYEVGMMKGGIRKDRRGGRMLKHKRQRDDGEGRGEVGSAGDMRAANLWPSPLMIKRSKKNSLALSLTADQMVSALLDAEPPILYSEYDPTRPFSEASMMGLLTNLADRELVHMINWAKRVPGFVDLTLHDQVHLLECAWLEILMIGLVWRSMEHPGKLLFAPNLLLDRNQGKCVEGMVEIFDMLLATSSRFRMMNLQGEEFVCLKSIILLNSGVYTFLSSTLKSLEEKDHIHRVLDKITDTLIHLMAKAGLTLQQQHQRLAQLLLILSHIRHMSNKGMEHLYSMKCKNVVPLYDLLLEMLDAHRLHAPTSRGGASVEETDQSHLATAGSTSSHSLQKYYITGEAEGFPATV
- Assay procedure: ER degradation activity, in-cell western blot analysis in T47D cells
- Type: cell-based
- Experimental parameters: compounds 16 hours, Table A does not say whether T47D or MCF7, read-out: Potency (DC50)
Quantity measured: DC50

A selection of reference data follows.
- Compound: "O=C1CCC(N2C(=O)c3cc4c(cc3C2=O)CN(C[C@H]2CC[C@H](C(=O)N3CC(Oc5ccc([C@@H]6c7ccc(O)cc7CC[C@@H]6c6ccccc6)cc5)C3)CC2)C4)C(=O)N1 (mixture of isomers)"
  Target: "ER (Homo sapiens)"
  DC50: "10 to 100 nM"
- Compound: "C[C@@H]1Cc2c(ccc3[nH]ncc23)[C@@H](c2c(F)cc(C3=CCC(C(=O)N4CCC(N5Cc6cc7c(cc6C5)C(=O)N(C5CCC(=O)NC5=O)C7=O)CC4)CC3)cc2F)N1CC(F)F (mixture of isomers)"
  Target: "ER (Homo sapiens)"
  DC50: "10 to 100 nM"
- Compound: "C[C@@H]1Cc2cc(O)ccc2[C@@H](c2c(F)cc(C(=O)N3CCC4(CC3)CC(CN3Cc5cc6c(cc5C3)C(=O)N(C3CCC(=O)NC3=O)C6=O)C4)cc2F)N1CC(F)F (some centres unmarked)"
  Target: "ER (Homo sapiens)"
  DC50: "> 100 nM"
- Compound: "O=C1CCC(N2Cc3cc4c(cc3C2=O)CN(C2CN(CC3CCN(c5ccc([C@@H]6c7ccc(O)cc7CC[C@@H]6c6ccccc6)cc5)CC3)C2)C4=O)C(=O)N1 (some centres unmarked)"
  Target: "ER (Homo sapiens)"
  DC50: "> 100 nM"
- Compound: "O=C1CCC(N2C(=O)c3cc4c(cc3C2=O)CC2(C4)CN(CC(=O)N3CC(Oc4ccc([C@@H]5c6ccc(O)cc6CC[C@@H]5c5ccccc5)cc4)C3)C2)C(=O)N1 (some centres unmarked)"
  Target: "ER (Homo sapiens)"
  DC50: "> 100 nM"

INPUT: # input compound: C[C@@H]1Cc2cc(O)ccc2[C@@H](c2c(F)cc(C(=O)N3CC4(CCC(CN5Cc6cc7c(cc6C5)C(=O)N(C5CCC(=O)NC5=O)C7=O)CC4)C3)cc2F)N1CC(F)F (some centres unmarked) ; wanted: its DC50
OUTPUT: > 100 nM

INPUT: # lookup: DC50 of COc1cc(N2CCC3(CCN(C(=O)CN4Cc5cc6c(cc5C4)C(=O)N(C4CCC(=O)NC4=O)C6=O)CC3)CC2)ccc1[C@@H]1c2[nH]c3ccccc3c2C[C@@H](C)N1CC(C)(C)F (some centres unmarked)
OUTPUT: 10 to 100 nM

INPUT: I'd like to know its DC50. The compound in question is C[C@@H]1Cc2cc(O)ccc2[C@@H](c2c(F)cc(C3CCC(C(=O)N4CCC(N5Cc6cc7c(cc6C5)C(=O)N(C5CCC(=O)NC5=O)C7=O)CC4)CC3)cc2F)N1CC(F)F (some centres unmarked)
OUTPUT: 10 to 100 nM

INPUT: Need DC50, item C[C@@H]1Cc2c(ccc3[nH]ncc23)[C@@H](c2c(F)cc(NC3CN(C(=O)[C@H]4CC[C@H](N5Cc6cc7c(cc6C5)C(=O)N(C5CCC(=O)NC5=O)C7=O)CC4)C3)cc2F)N1CC(F)F (some centres unmarked)
OUTPUT: < 10 nM
